- Tested on: A549
- assay_method_text: NCI tumour cell line growth inhibition, 48 h
Calls of active or inactive are those of the source. Rule as the data show it: active = GI50 up to about 1.1 µM and inactive = higher.
Assign a class; possible classes are TRUE (active), FALSE (inactive)

Please share the test call associated with `Cc1cc2c(cc1C)[n+]([O-])c(NCCCN(C)C)c(C#N)[n+]2[O-]` .
FALSE

Please share the test call associated with `C=C(Br)CNC(=O)CCC(=O)NCC(=C)Br` .
FALSE

Please share the test call associated with `Cc1c(C(=O)CC(=O)C(=O)Nc2ccc(Cl)c(Cl)c2)[n+]([O-])c2ccccc2[n+]1[O-]` .
FALSE

Please share the test call associated with `O=C(NC(=S)Nc1ccc(Br)cc1)c1ccc2c(c1)Sc1ccccc1S2` .
FALSE

Please share the test call associated with COc1cc(C2C3=C(NC(=O)C2C#N)c2ccc4ccccc4c2OCC3)cc(OC)c1OC (stereo not given) .
FALSE

Please share the test call associated with `CCN(CC)CCNC(=O)c1ccc(I)cc1` .
FALSE

Please share the test call associated with `CC(=O)N(CC(=O)C(=O)NNc1ccoc1)c1ccc(Cl)cc1` .
FALSE

Please share the test call associated with COc1cc2c3c(cc(Cl)nc3c1OC)C(O)(CC(=O)c1ccccc1)C(=O)N2 (stereo not given) .
FALSE

Please share the test call associated with O=C(N/S(=N/S(=O)(=O)c1ccc(Br)cc1)C(Cl)(Cl)Cl)c1ccccc1 (stereo not given) .
FALSE

Please share the test call associated with `Nc1ccc(S(=O)(=O)c2ccc(/N=[N+](\[O-])c3ccc(S(=O)(=O)c4ccc(N)cc4)cc3)cc2)cc1` .
FALSE

Please share the test call associated with `COc1cccc(/N=N/C(=N/NC(=O)c2cc(Cl)ccc2O)c2ccc(N(CCC#N)CCC#N)cc2C)c1` .
FALSE

Please share the test call associated with `Cc1cc(NCCCCCCCCNc2cc(C)nc3cc(N(C)C)ccc23)c2ccc(N(C)C)cc2n1` .
FALSE

Please share the test call associated with NC(Cc1ccc(S(=O)(=O)O)cc1)C(=O)NC(Cc1ccc(S(=O)(=O)O)cc1)C(=O)NC(Cc1ccc(S(=O)(=O)O)cc1)C(=O)O (stereo not given) .
FALSE

Please share the test call associated with `CCC(C)(C)c1ccc(Oc2cccc(C(=O)O)c2)cc1` .
FALSE

Please share the test call associated with `CC(C)(C)NNc1c([N+](=O)[O-])cnn(-c2ccccc2)c1=O` .
FALSE

Please share the test call associated with O=C1CC(c2cccc(Cl)c2)Nc2ccc(N3CCCC3)cc21 (stereo not given) .
TRUE

Please share the test call associated with `CCOC(=O)[C@@H](Cc1ccc(CCl)cc1)NC(C)=O` .
FALSE

Please share the test call associated with `COc1ccc(/N=N/C(=N\c2ccc(F)cc2)c2ccc(N(CCC#N)CCC#N)cc2)cc1` .
FALSE

Please share the test call associated with `O=CN1CCN(C(=O)c2ccc(Cl)c(Cl)c2)C1=S` .
FALSE

Please share the test call associated with CN(C)CCNC(=O)c1cccc2c(NC(CS)C(=O)O)c3ccccc3[n+](C)c12 (stereo not given) .
FALSE
